Observable: melting point

Worked examples follow.
{"columns": ["Compound", "melting point"],
 "data": [
  ["COc1ccc(C)c(NC(=O)c2ccc3ccccc3c2O)c1 [3h]", "128 to 130 °C"],
  ["O=C(Nc1c(Br)cc(C(F)(F)F)cc1Br)c1ccc2ccccc2c1O [6l]", "183 to 186 °C"],
  ["O=C(Nc1cc(C(F)(F)F)ccc1F)c1ccc2ccccc2c1O [4u]", "190 to 192 °C"],
  ["COc1ccc(NC(=O)c2ccc3ccccc3c2O)cc1C(F)(F)F [7k]", "183 to 186 °C"],
  ["O=C(Nc1cccc(Cl)c1F)c1ccc2ccccc2c1O [4o]", "172 to 174 °C"]
]}

The value of melting point measured for the compound O=C(Nc1cc(F)cc(C(F)(F)F)c1)c1ccc2ccccc2c1O [4×] turned out to be 165 to 167 °C

Entry O=C(Nc1cccc(C(F)(F)F)c1F)c1ccc2ccccc2c1O [4p] ; melting point = 174 to 175 °C

Item: COc1cccc(C)c1NC(=O)c1ccc2ccccc2c1O [2k] | melting point: 177 to 179 °C

====

Reported pIC50 by item:
# Test system: HCT116^+/+
# Assay procedure: Antiproliferative assay (MTS, 72 h) on HCT116 wild type
# Assay type: cell-based, human
# Measurement parameters: MTS, 72 h incubation; read-out: Activity IC50 HCT116^+/+
Note on pIC50: it is the negative log10 of concentration, concentration in mol/L.

Recorded pIC50, per entry:
{"columns": ["Molecule smiles", "Target system", "pIC50"],
 "data": [
  ["O=C(Nc1ccccc1Br)c1ccc2ccccc2c1O", "HCT116^+/+", 4.65],
  ["COc1cc(NC(=O)c2ccc3ccccc3c2O)cc(OC)c1OC", "HCT116^+/+", 5.18],
  ["O=C(Nc1ccc(Cl)cc1Cl)c1ccc2ccccc2c1O", "HCT116^+/+", 5.71],
  ["O=C(Nc1cccc(F)c1)c1ccc2ccccc2c1O", "HCT116^+/+", 5.73]
]}

--- query ---
# pIC50 measured on HCT116^+/+ for item O=C(Nc1ccc(C(F)(F)F)cc1)c1ccc2ccccc2c1O = 5.37

====

# Tested on: HCT116^+/+
# Assay procedure: Antiproliferative assay (MTS, 72 h) on HCT116 wild type
# Format: cell-based, human
# Measurement parameters: MTS, 72 h incubation; read-out: Activity IC50 HCT116^+/+
Observable: pIC50
Formally, pIC50 is defined as -log10 of the concentration c, with c in mol/L.

{"columns": ["Compound", "pIC50"],
 "data": [
  ["O=C(Nc1ccc(C(F)(F)F)cc1C(F)(F)F)c1ccc2ccccc2c1O", 4.95],
  ["O=C(Nc1cc(C(F)(F)F)ccc1C(F)(F)F)c1ccc2ccccc2c1O", 5.35],
  ["O=C(Nc1ccccc1[N+](=O)[O-])c1ccc2ccccc2c1O", 4.63],
  ["O=C(Nc1ccccc1Cl)c1ccc2ccccc2c1O", 4.78],
  ["COc1cccc(NC(=O)c2ccc3ccccc3c2O)c1", 5.07],
  ["O=C(Nc1cc(Cl)ccc1Cl)c1ccc2ccccc2c1O", 5.13],
  ["O=C(Nc1ccc(Cl)cc1Br)c1ccc2ccccc2c1O", 5.02],
  ["COc1ccc(/C=C/c2nc(NCCCN(C)C)c3ccccc3n2)cc1 [CP-31398, reference compound]", 4.73]
]}

Entry O=C(Nc1ccc(Br)cc1Cl)c1ccc2ccccc2c1O under HCT116^+/+ had pIC50 of 5.63

pIC50 on HCT116^+/+ for O=C(Nc1ccc([N+](=O)[O-])cc1C(F)(F)F)c1ccc2ccccc2c1O is 5.69

Value sought: pIC50, system HCT116^+/+, item O=C(Nc1ccc(Cl)cc1)c1ccc2ccccc2c1O . Result: 5.02

Assay HCT116^+/+, sample O=C(Nc1cccc(Br)c1)c1ccc2ccccc2c1O , pIC50 read: 5.04

So the reported pIC50 for O=C(Nc1cc(Br)ccc1Br)c1ccc2ccccc2c1O , on HCT116^+/+, turned out to be 5.28

O=C(Nc1ccc(Br)cc1Br)c1ccc2ccccc2c1O on HCT116^+/+ gives pIC50 = 5.34

Entry O=C(Nc1cccc([N+](=O)[O-])c1)c1ccc2ccccc2c1O : pIC50 on HCT116^+/+ = 5.17

Value (pIC50, HCT116^+/+) for record O=C(Nc1ccc(Cl)c(Cl)c1)c1ccc2ccccc2c1O = 5.29
